- tested-target: nociceptin receptor (OPRL1) (Homo sapiens, UniProt P41146)
- Sequence (P41146 whole entry): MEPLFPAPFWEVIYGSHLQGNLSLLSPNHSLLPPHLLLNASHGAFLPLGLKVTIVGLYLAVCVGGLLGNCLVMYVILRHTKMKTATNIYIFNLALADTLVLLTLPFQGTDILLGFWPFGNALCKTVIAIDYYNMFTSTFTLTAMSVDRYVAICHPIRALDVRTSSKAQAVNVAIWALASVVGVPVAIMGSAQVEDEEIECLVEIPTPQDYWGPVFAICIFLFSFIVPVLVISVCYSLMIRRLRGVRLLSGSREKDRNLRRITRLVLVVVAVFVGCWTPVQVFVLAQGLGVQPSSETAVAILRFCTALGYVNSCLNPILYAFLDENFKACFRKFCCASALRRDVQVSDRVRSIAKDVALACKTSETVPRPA
- assay: cell-based
- Format: cell-based
- settings: NOR cAMP pEC50± SEM
measurement-name: EC50

1) O=S(=O)(Nc1cccc(N2C3CCC2CN(CCCc2ccccc2)C3)c1)C1CC1    > 10 µM
2) Nc1cccc(N2C3CCC2CN(CCCc2ccccc2)C3)c1    > 10 µM
3) NC(=O)c1cc(N2C3CCC2CN(CCCc2ccccc2)C3)ccc1O    > 10 µM

----------
- tested-target: human μ opioid receptor β-arrestin-2 (Homo sapiens, UniProt P35372)
- Sequence (P35372 whole entry): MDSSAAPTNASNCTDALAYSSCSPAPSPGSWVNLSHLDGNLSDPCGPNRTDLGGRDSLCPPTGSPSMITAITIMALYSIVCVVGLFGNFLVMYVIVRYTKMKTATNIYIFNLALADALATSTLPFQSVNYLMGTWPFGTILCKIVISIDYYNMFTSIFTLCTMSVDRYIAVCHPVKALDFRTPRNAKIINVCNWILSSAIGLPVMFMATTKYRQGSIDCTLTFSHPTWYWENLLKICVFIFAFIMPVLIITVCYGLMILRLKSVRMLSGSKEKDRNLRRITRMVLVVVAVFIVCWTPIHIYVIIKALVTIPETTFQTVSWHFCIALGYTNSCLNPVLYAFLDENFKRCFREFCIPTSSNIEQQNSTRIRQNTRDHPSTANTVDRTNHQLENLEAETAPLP
- assay: cell-based
- settings: read-out: β-Arrestin Recruitment %Emax ± SEM
measurement-name: Emax (%)

1) Nc1cccc(N2C3CCC2CN(CCCc2ccccc2)C3)c1 [Compound 11]    0
2) Oc1ccc(N2C3CCC2CN(CCCc2ccccc2)C3)cc1 [Compound 1]    0
3) O=S(=O)(Nc1cccc(N2C3CCC2CN(CCCc2ccccc2)C3)c1)C1CC1 [Compound 12]    4.3
